src = paper PMC11858841

Assay summary: Solubility, shake-flask method
Assay type: physicochemical
Condition description: organic solvent or mixture, thermodynamic from solid, Methanol, 25 °C
Recorded metric: solubility at 24 h (µg/mL)
Number only, in µg/mL; omit the unit.

Exercise: What value of measured solubility at 24 h is listed for `COc1ccc2c3nn(-c4ccc(OC(F)(F)F)cc4)c(=O)c-3c[nH]c2c1C` ?
Solution: 939

====

Assay summary: In vitro permeation through iPSC-derived blood–brain barrier model
Type: in vitro ADME, human
Condition description: inserts without cells; read-out: recovery of CW-02-79 without cells
Recorded metric: recovery at 24 h, 3 µM

Exercise: What value of measured recovery at 24 h, 3 µM is listed for `COc1ccc2c3nn(-c4ccc(OC(F)(F)F)cc4)c(=O)c-3c[nH]c2c1C` ?
Solution: ~100%
